experiment: Selectivity index, ratio of IC50 for cytotoxicity against HEK293T cells to IC50 for antiproliferative activity against human HeLa cells; assay type: toxicity, cell-based; conditions: HEK293T cells versus HeLa cells, read-out: Ratio IC50
Reported endpoint: selectivity ratio
# respond with the number and nothing more

INPUT: Indicate the recorded selectivity ratio value for this compound: C[C@]12CC[C@@H]3c4ccc(OCCCCC[Se]C#N)cc4CC[C@H]3[C@@H]1CCC2=O
OUTPUT: 8.1

----------
test: Selectivity index, ratio of IC50 for cytotoxicity against HEK293T cells to IC50 for antiproliferative activity against human HepG2 cells; assay type: toxicity, cell-based; conditions: HEK293T cells versus HepG2 cells, read-out: Ratio IC50
Reported endpoint: selectivity ratio

INPUT: Indicate the recorded selectivity ratio value for this compound: C[C@]12CC[C@@H]3c4cc(NC(=O)C[Se]C#N)c(O)cc4CC[C@H]3[C@@H]1CCC2=O
OUTPUT: 15

----------
Entries annotated with measured pIC50
tested on: SK-OV-3; assay: Antiproliferative activity against human SK-OV-3 cells assessed as inhibition of cell growth incubated for 72 hrs by MTT assay; type: functional, cell-based; settings: SK-OV-3, 72 h
The read-out pIC50 is expressed as -log10 of concentration in moles per litre.

In the examples that follow, each entry is paired with its recorded pIC50.
INPUT: // fetch pIC50 for COc1ccc2c(c1)CC[C@@H]1[C@@H]2CC[C@]2(C)C(NC(=O)C[Se]C#N)CC[C@@H]12 (stereo not given in full) ; system: SK-OV-3
OUTPUT: 4.51

INPUT: // fetch pIC50 for C[C@]12CC[C@@H]3c4cc(NC(=O)CCCCCC[Se]C#N)c(O)cc4CC[C@H]3[C@@H]1CCC2=O ; system: SK-OV-3
OUTPUT: 5.09

INPUT: // fetch pIC50 for COc1ccc2c(c1)CC[C@@H]1[C@@H]2CC[C@]2(C)C(OC(=O)C[Se]C#N)CC[C@@H]12 (stereo not given in full) ; system: SK-OV-3
OUTPUT: 4.28

INPUT: // fetch pIC50 for COc1ccc2c(c1)CC[C@@H]1[C@@H]2CC[C@]2(C)C(NC(=O)c3ccc(C[Se]C#N)cc3)CC[C@@H]12 (stereo not given in full) ; system: SK-OV-3
OUTPUT: 4.65

INPUT: // fetch pIC50 for C[C@]12CC[C@@H]3c4ccc(O)cc4CC[C@H]3[C@@H]1CCC2NC(=O)C[Se]C#N (stereo not given in full) ; system: SK-OV-3
OUTPUT: 4.52

Next:
INPUT: // fetch pIC50 for C[C@]12CC[C@@H]3c4ccc(OCCCCCCCCCCCC[Se]C#N)cc4CC[C@H]3[C@@H]1CCC2=O ; system: SK-OV-3
OUTPUT: 4.33

INPUT: // fetch pIC50 for C[C@]12CC[C@@H]3c4ccc(OCCCCC[Se]C#N)cc4CC[C@H]3[C@@H]1CCC2=O ; system: SK-OV-3
OUTPUT: 4.51

INPUT: // fetch pIC50 for C[C@]12CC[C@@H]3c4cc(NC(=O)C[Se]C#N)c(O)cc4CC[C@H]3[C@@H]1CCC2=O ; system: SK-OV-3
OUTPUT: 5.59

INPUT: // fetch pIC50 for C[C@]12CC[C@@H]3c4ccc(O)cc4CC[C@H]3[C@@H]1CCC2NC(=O)c1ccc(C[Se]C#N)cc1 (stereo not given in full) ; system: SK-OV-3
OUTPUT: 4.56

INPUT: // fetch pIC50 for C[C@]12CC[C@@H]3c4ccc(OCCCC[Se]C#N)cc4CC[C@H]3[C@@H]1CCC2=O ; system: SK-OV-3
OUTPUT: 4.30

INPUT: // fetch pIC50 for C[C@]12CC[C@@H]3c4ccc(OCCCCCCCC[Se]C#N)cc4CC[C@H]3[C@@H]1CCC2=O ; system: SK-OV-3
OUTPUT: 4.70

INPUT: // fetch pIC50 for COc1cc2c(cc1O)CC[C@@H]1[C@@H]2CC[C@]2(C)[C@@H](O)CC[C@@H]12 ; system: SK-OV-3
OUTPUT: 4.78

INPUT: // fetch pIC50 for C[C@]12CC[C@H](O)CC1=CC[C@@H]1[C@@H]2CC[C@]2(C)C(c3cccnc3)=CC[C@@H]12 ; system: SK-OV-3
OUTPUT: 4.23

INPUT: // fetch pIC50 for C[C@]12CC[C@@H]3c4cc(NC(=O)CCCC[Se]C#N)c(O)cc4CC[C@H]3[C@@H]1CCC2=O ; system: SK-OV-3
OUTPUT: 4.81

INPUT: // fetch pIC50 for C[C@]12CC[C@@H]3c4ccc(OCCC[Se]C#N)cc4CC[C@H]3[C@@H]1CCC2=O ; system: SK-OV-3
OUTPUT: 4.26
